System: Mycobacterium avium
Assay: Antimycobacterial activity against INH/RIF/rifabutin/OFX/EMB resistant Mycobacterium avium CNCTC 330/88 assessed as bacterial growth inhibition incubated for 21 days by two-fold serial dilution method
Assay type: functional
Details: CNCTC 330/88, 504 h, time 21 day
Field: MIC. Provide a value for each of the compounds that follow.

Here is how some compounds turned out for MIC.
# SUBSTANCE SMILES, SYSTEM TESTED, MIC
rows = [
    ("Nc1ccc(S(=O)(=O)Nc2ccccc2Oc2ccccc2)cc1", "Mycobacterium avium", "1000 µM"),
    ("Nc1ccc(S(=O)(=O)Nc2ccc(Oc3ccc(Cl)cc3)c(Cl)c2)cc1", "Mycobacterium avium", "125 µM"),
    ("Nc1ccc(S(=O)(=O)Nc2ccc(Oc3ccc(Cl)cc3)cc2)cc1", "Mycobacterium avium", "1000 µM"),
    ("NS(=O)(=O)c1ccc(NC(=O)/C=N/NC(=O)c2ccncc2)cc1", "Mycobacterium avium", "≥ 1000 µM"),
]

Report MIC for each item below.
1. COc1cnc(NS(=O)(=O)c2ccc(NC(=O)/C(C)=N/NC(=O)c3ccncc3)cc2)nc1
2. C/C(=N\NC(=O)c1ccncc1)C(=O)Nc1ccc(-c2ccccc2)cc1
3. COC(=O)c1ccc(NS(=O)(=O)c2ccc(N)cc2)cc1O

≥ 1000 µM
> 250 µM
> 1000 µM

Report MIC for each item below.
1. NNC(=O)c1ccncc1
2. C/C(=N\NC(=O)c1ccncc1)C(=O)Nc1ccc(Oc2ccccc2)cc1
3. COc1ccc(NS(=O)(=O)c2ccc(NC(=O)/C(C)=N/NC(=O)c3ccncc3)cc2)nn1

1: > 250 µM; 2: 500 µM; 3: ≥ 1000 µM

Report MIC for each item below.
1. C/C(=N\NC(=O)c1ccncc1)C(=O)NNC(=O)c1ccncc1
2. O=C(/C=N/NC(=O)c1ccncc1)Nc1ccc(S(=O)(=O)Nc2nccs2)cc1
3. Nc1ccc(S(=O)(=O)Nc2ccc(Oc3ccccc3)cc2)cc1
4. C/C(=N\NC(=O)c1ccncc1)C(=O)Nc1ccc(Oc2ccc(Cl)cc2)c(Cl)c1
5. O=C(/C=N/NC(=O)c1ccncc1)Nc1ccc(S(=O)(=O)Nc2ncccn2)cc1

500 µM
500 µM
1000 µM
500 µM
500 µM

Report MIC for each item below.
1. COC(=O)c1ccc(NC(=O)/C(C)=N/NC(=O)c2ccncc2)cc1O
2. C/C(=N\NC(=O)c1ccncc1)C(=O)Nc1ccc(S(=O)(=O)Nc2nc(C)cc(C)n2)cc1

1: ≥ 1000 µM; 2: 500 µM

Report MIC for each item below.
1. C/C(=N\NC(=O)c1ccncc1)C(=O)O
2. C/C(=N\NC(=O)c1ccncc1)C(=O)Nc1ccc(S(=O)(=O)Nc2nccs2)cc1
3. Nc1ccc(S(=O)(=O)Nc2ccc(-c3ccccc3)cc2)cc1
4. C/C(=N\NC(=O)c1ccncc1)C(=O)Nc1ccc(S(N)(=O)=O)cc1

1: > 1000 µM; 2: ≥ 1000 µM; 3: ≥ 1000 µM; 4: ≥ 1000 µM

Values compiled from ChEMBL document CHEMBL6177921.
